Data provenance: patent US20170216297A1

tested_target: UniProt P04792
Sequence (P04792 whole entry): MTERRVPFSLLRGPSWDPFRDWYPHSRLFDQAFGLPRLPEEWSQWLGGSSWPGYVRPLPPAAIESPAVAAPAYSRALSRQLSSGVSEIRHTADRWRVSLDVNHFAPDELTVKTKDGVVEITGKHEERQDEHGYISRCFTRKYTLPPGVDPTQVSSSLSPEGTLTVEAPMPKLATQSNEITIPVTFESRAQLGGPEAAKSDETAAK
experimental_protocol: Bio-layer interferometry (ForteBio Octet Red 384, biotinylated HSP27 on SSA sensors)
Type: binding
condition_set: bio-layer interferometry; read-out: KD
Reported values of Kd for individual entries
Report as a plain number; the unit µM is understood.

Below, 2 compounds whose answers are already recorded.
* CCCCc1ccc(Nc2nc3c(ncn3COCCO)c(=O)[nH]2)cc1 | 15
* CN(C)CCCN1c2ccccc2Sc2ccc(Cl)cc21 [Chlorpromazine, reference compound] | 770

Read the next record carefully.
Task: Given CC(=O)c1ccc2c(c1)N(CCCN(C)C)c1ccccc1S2 [Acepromazine] , state its recorded Kd.
Result: 72
